Target: Cannabinoid receptor 2 (Mus musculus)
Sequence (P47936 whole entry): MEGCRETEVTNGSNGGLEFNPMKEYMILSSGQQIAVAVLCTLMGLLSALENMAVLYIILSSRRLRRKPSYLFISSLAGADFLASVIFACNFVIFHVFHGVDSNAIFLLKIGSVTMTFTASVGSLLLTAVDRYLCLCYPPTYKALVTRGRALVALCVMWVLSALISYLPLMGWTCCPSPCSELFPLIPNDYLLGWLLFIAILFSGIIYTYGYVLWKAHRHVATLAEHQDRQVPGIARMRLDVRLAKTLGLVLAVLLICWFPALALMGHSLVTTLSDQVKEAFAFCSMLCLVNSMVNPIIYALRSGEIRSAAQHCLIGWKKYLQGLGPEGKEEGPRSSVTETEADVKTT
Endpoint: pKi
One number for each entry, as −log10 of the molar value.

CCCCCCCC1(c2cc(O)c3c(c2)OC(C)(C)[C@@H]2CC=C(C)C[C@@H]32)CCC1 = 7.28
CCCCCCCC1(c2cc(O)c3c(c2)OC(C)(C)[C@@H]2CC=C(C)C[C@@H]32)CC1 (relative stereo) = 8.38
CCCC/C=C\C1(c2cc(O)c3c(c2)OC(C)(C)[C@@H]2CC=C(C)C[C@@H]32)CCCC1 (relative stereo) = 8.74

# return pKi for each item in the list
1. CCCCCCCc1cc(O)c2c(c1)OC(C)(C)[C@@H]1CC=C(C)C[C@@H]21
2. CCCCCCCC1(c2cc(O)c3c(c2)OC(C)(C)[C@@H]2CC=C(C)C[C@@H]32)CCCC1

Result:
7.68
7.34

---

Here's a batch of compounds along with measured Ki for Cannabinoid receptor 2 (Mus musculus).
Answers are plain numbers, in nM.

Here is how some compounds turned out for Ki.
CCCCCCC1(c2cc(O)c3c(c2)OC(C)(C)[C@@H]2CC=C(C)C[C@@H]32)CCCCC1 = 23.5
CCCCCCCC1(c2cc(O)c3c(c2)OC(C)(C)[C@@H]2CC=C(C)C[C@@H]32)CCCCC1 = 143

Q: Name the reported Ki value associated with the compound `CCCC/C=C\C1(c2cc(O)c3c(c2)OC(C)(C)[C@@H]2CC=C(C)C[C@@H]32)CCC1`
Result: 1.2

---

Here's a batch of compounds along with measured Ki for Cannabinoid receptor 1 (Rattus norvegicus, UniProt P20272).
Answers are plain numbers, in nM.

Here is how some compounds turned out for Ki.
CCCCCCC1(c2cc(O)c3c(c2)OC(C)(C)[C@@H]2CC=C(C)C[C@@H]32)CCC1 = 1.5
CCCCCCCc1cc(O)c2c(c1)OC(C)(C)[C@@H]1CC=C(C)C[C@@H]21 = 8.8
CCCC/C=C\C1(c2cc(O)c3c(c2)OC(C)(C)[C@@H]2CC=C(C)C[C@@H]32)CCC1 = 0.93

Now consider the entry below.
Q: Recorded Ki for CCCCCCCC1(c2cc(O)c3c(c2)OC(C)(C)[C@@H]2CC=C(C)C[C@@H]32)CC1 (relative stereo) with Cannabinoid receptor 1 (Rattus norvegicus, UniProt P20272), please?
Result: 0.48

---

Here's a batch of compounds along with measured Ki for Cannabinoid receptor 1 (Rattus norvegicus, UniProt P20272).
Give bare numbers, in nM.

CCCCCCCC1(c2cc(O)c3c(c2)OC(C)(C)[C@@H]2CC=C(C)C[C@@H]32)CCC1 = 2.7

# return Ki for each item in the list
1. CCCCCCCC1(c2cc(O)c3c(c2)OC(C)(C)[C@@H]2CC=C(C)C[C@@H]32)CCCC1
2. CCCC/C=C\C1(c2cc(O)c3c(c2)OC(C)(C)[C@@H]2CC=C(C)C[C@@H]32)CCCC1 (relative stereo)
3. CCCCCCC1(c2cc(O)c3c(c2)OC(C)(C)[C@@H]2CC=C(C)C[C@@H]32)CCCCC1
4. CCCCCCCC1(c2cc(O)c3c(c2)OC(C)(C)[C@@H]2CC=C(C)C[C@@H]32)CCCCC1
5. CCCC/C=C\C1(c2cc(O)c3c(c2)OC(C)(C)[C@@H]2CC=C(C)C[C@@H]32)CCCCC1
6. CCCC/C=C\C1(c2cc(O)c3c(c2)OC(C)(C)[C@@H]2CC=C(C)C[C@@H]32)CC1

Result:
1: 9.9; 2: 0.72; 3: 18.4; 4: 13.6; 5: 3.9; 6: 1.5
